biological target: T1, extracellular domain of human TF protein (human, UniProt P13726 34-251); test: ELISA, coated TF extracellular domain
T1 construct: range 34-251; Limits 34-251 are stated for the immunogen; also called the extracellular domain protein of TF; TF antigen
measurement.kind: pEC50
Expect pEC50 as a plain number equal to -log10 of the molar concentration.

Example entries and their recorded answers appear below.
TF-mAb-H47 (antibody, V domains shown, Humanized) VH: QVQLVQSGAEVKKPGASVKVSCKASGYSFISYWMNWVRQAPGQGLEWIGMIYPADSETRLNQKFKDRATLTVDKSTSTAYMELSSLRSEDTAVYYCAREDYGSSDYWGQGTTVTVSS VL: EIVLTQSPDFQSVTPKEKVTITCSASSSVSYMNWYQQKPDQSPKIWIYGISNLASGVPSRFSGSGSGTDFTLTINSLEAEDAATYYCQQKSSFPWTFGGGTKVEIK | 10.89
TF-mAb-H45 (antibody, V domains shown, Humanized) VH: EVQLVQSGAEVKKPGESLKISCKGSGYSFTSYWMNWVRQMPGKGLEWMGMIYPADSETRLNQKFKDKATLSVDKSISTAYLQWSSLKASDTAMYYCAREDYGSSDYWGQGTTVTVSS VL: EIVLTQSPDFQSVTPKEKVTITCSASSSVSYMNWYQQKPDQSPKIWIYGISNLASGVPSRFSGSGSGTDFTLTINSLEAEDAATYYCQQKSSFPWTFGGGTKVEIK | 10.86

Attention now turns to another entry.
Entry TF-mAb-H34 (antibody, V domains shown, Humanized) VH: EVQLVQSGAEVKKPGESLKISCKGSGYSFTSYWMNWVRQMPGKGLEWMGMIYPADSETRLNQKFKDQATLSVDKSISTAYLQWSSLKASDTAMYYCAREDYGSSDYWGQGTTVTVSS VL: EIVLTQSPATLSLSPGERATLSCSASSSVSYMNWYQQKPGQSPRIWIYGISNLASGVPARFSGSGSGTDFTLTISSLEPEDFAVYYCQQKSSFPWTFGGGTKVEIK ; pEC50 = 10.81

src = patent US20190177431A1
